// provenance: PubChem BioAssay (NCI)

# Test system: COLO 205 colon
# METHOD: NCI tumour cell line growth inhibition, 48 h; in the data active = GI50 below about 0.43 µM; inactive = the rest
Your answer must be one of the following: active, inactive

// outcome(item) with item = Nc1ncnc2c1c(-c1cccc(OCc3ccccc3)c1)cn2C1CC(CN2CCCC2)C1 (stereo not drawn)
active

// outcome(item) with item = C(=N/Nc1ncnc2nc[nH]c12)/c1ccccn1
inactive

// outcome(item) with item = CCc1ccc(CCC(=O)Nc2ncc(Cc3cc(Cl)ccc3Cl)s2)o1
inactive

// outcome(item) with item = C[As](C)Sc1ccnc(S[As](C)C)n1
inactive

// outcome(item) with item = O=C1Nc2cc(Cl)ccc2Oc2cc(Oc3ccccc3)ccc21
inactive

// outcome(item) with item = CCOC(=O)c1ccc2c(c1)[n+](=O)c(C(=O)c1ccc3ccccc3c1)c(C(F)(F)F)n2[O-]
inactive

// outcome(item) with item = C#CC[C@@H]1C[C@]2(C)[C@H]3CC[C@@H]4[C@H]5[C@H](C(=C)C)CC[C@]5(C(=O)O)CC[C@@]4(C)[C@]3(C)CC[C@H]2C(C)(C)[C@H]1O
inactive

// outcome(item) with item = CC(C)c1ccc2c(N=Nc3ccc(S(N)(=O)=O)cc3)c(O)[nH]c2c1
inactive
